This collection of values is drawn from a melting point compilation (Tetko et al.; mined from patent text by program, amines drawn as free bases though some values may be those of a salt).

So I've got a bunch of compounds here, and I need their melting point values.

**Q:** Fill in the blank: the reported melting point of COc1cccc(CC(=O)NCc2ccccc2Cl)c1 is ____.
**A:** 89 to 91 °C

**Q:** Fill in the blank: the reported melting point of C=C1NC(NC(C)CC)=C(C(=O)OCC)C(NN)=C1C#N (stereo not drawn) is ____.
**A:** 120 to 121 °C

**Q:** Fill in the blank: the reported melting point of C=CCOC(=O)c1ccc(COC(=O)c2cc(C(C)(C)C)c(O)c(C(C)(C)C)c2)cc1 is ____.
**A:** 100 to 101 °C

**Q:** Fill in the blank: the reported melting point of COc1cc(CC(=O)O)ccc1OCCNC(=O)C1Cc2ccccc2N1S(=O)(=O)c1ccc(-c2cc(C(F)(F)F)ccc2Cl)cc1 (stereo not drawn) is ____.
**A:** 74 to 76 °C

**Q:** Fill in the blank: the reported melting point of CNC(=O)N1CCC(Oc2ccc(C(F)(F)F)cc2)(c2ccccc2)CC1 is ____.
**A:** 118 to 120 °C

**Q:** Fill in the blank: the reported melting point of O=C1N=NC(Cc2ccc(OCCc3coc(-c4ccccc4)n3)cc2)O1 (stereo not drawn) is ____.
**A:** 142 to 144 °C

**Q:** Fill in the blank: the reported melting point of CCc1cccc(CC)c1N(Cc1c[nH]nn1)C(=O)c1ccccc1 is ____.
**A:** 112 to 115 °C

**Q:** Fill in the blank: the reported melting point of CCCN(C(C)=O)c1ccc(C(=O)N2CCN(CCc3ccc(Cl)cc3)CC2)cc1 is ____.
**A:** 112 to 113 °C

**Q:** Fill in the blank: the reported melting point of CC1(C)CCC(C)(C)c2cc(C(O)COc3ccc(CO)c(O)c3)ccc21 (stereo not drawn) is ____.
**A:** 110 to 115 °C

**Q:** Fill in the blank: the reported melting point of Cc1cc(CCC(=O)c2ccc(-c3ccc(C(F)(F)F)cc3)s2)ccc1OC(C)(C)C(=O)O is ____.
**A:** 130 to 131 °C

**Q:** Fill in the blank: the reported melting point of C[C@@H](n1cnc2ccc(Br)cc2c1=O)[C@](O)(Cn1cncn1)c1ccc(F)cc1F is ____.
**A:** 182 to 183 °C

**Q:** Fill in the blank: the reported melting point of O=C(O)CCCc1cc2cc(C(F)(F)F)ccc2n1S(=O)(=O)c1ccc2c(c1)CCO2 is ____.
**A:** 144 to 149 °C

**Q:** Fill in the blank: the reported melting point of N#CCC(=O)Nc1c([N+](=O)[O-])cnn1-c1c(Cl)cc(C(F)(F)F)cc1Cl is ____.
**A:** 221 to 223 °C
